target-system: Fibroblast growth factor 2 (Homo sapiens) (UniProt P09038)
Sequence (P09038 whole entry, looked up): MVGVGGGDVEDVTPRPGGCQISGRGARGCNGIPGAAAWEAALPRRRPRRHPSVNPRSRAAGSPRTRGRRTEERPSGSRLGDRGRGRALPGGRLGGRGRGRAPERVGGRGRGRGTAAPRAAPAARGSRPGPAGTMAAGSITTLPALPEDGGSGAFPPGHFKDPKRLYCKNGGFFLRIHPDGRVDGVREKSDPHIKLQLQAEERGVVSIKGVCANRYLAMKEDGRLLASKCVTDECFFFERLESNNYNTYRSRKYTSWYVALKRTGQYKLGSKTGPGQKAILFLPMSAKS
experimental-details: FGF2 binders on small-molecule microarrays, primary screen, biochemical, small-molecule microarray, 635/667 nm fluorescence (AID 1133)
conditions-used: small-molecule microarray binding, FGF2, fluorescence 635/667; higher = more signal
In this section, each of the molecules is paired with its reported composite z-score.
quantity: composite z-score

> print(dat)
                                    molecule           quantity  result.value
 1        O=C(C=Cc1ccc2c(c1)OCO2)c1ccc(F)cc1  composite z-score          1.31
 2  COCCNC(=O)OCC1CCCC2(CC(OC(=O)NCc3ccc4c(c3)OCO4)CC(CCC(=O)N[C@@H](C)C(=O)OC)O2)O1 (stereo partly drawn)  composite z-score          1.13
 3  CO[C@H]1COC(=O)[C@H](C)NC(=O)[C@@H](C)COC(=O)[C@H]2CCCN2C(=O)CC=C[C@H]1C  composite z-score         0.806
 4  COc1ccc(O[C@H]2C=C[C@@H](c3ccccc3)O[C@@H]2CON=CC[C@@H]2C=C[C@H](OC(C)=O)[C@@H](COC(C)=O)O2)cc1  composite z-score         0.107
 5  CCOC(=O)NN=C1C[C@@H](O)[C@@H](O)[C@@H]2[C@@H]3C(=O)N([C@@H](C)c4ccccc4)C(=O)[C@@H]3CC[C@@H]12  composite z-score         0.642
 6  O=C(NN=C1C[C@@H](O)[C@@H](O)[C@@H]2[C@@H]3C(=O)N(C4CCCCC4)C(=O)[C@@H]3CC[C@H]12)OCc1ccccc1  composite z-score        -0.443
 7  CCOC(=O)[C@H](Cc1ccccc1)NC(=O)CCC1CC(OC(=O)NCc2ccc3c(c2)OCO3)CC2(CCCC(COC(=O)NCCC(C)C)O2)O1 (stereo partly drawn)  composite z-score          1.06
 8  COc1ccc(O[C@H]2C=C[C@@H](c3ccccc3)O[C@@H]2CON=C(C)CCC(=O)OC[C@H]2O[C@H](c3ccccc3)C=C[C@@H]2Oc2ccc(OC)cc2)cc1  composite z-score        -0.922
 9  COC(=O)CC=C[C@@H](C)[C@@H](C=NOCC[C@@H]1C=C[C@H](OC(C)=O)[C@@H](COC(C)=O)O1)OC  composite z-score         0.785
10  COC(=O)CC=C[C@@H](C)[C@@H](C=NO[C@H](C)c1cn([C@@H]2COC[C@H]2O)nn1)NS(=O)(=O)c1ccc(C)cc1  composite z-score         0.845
11  COC(=O)CC=C[C@@H](C)[C@@H](C=NO[C@@H](C)c1cc(-c2c(C)cc(C)cc2C)no1)NS(=O)(=O)c1ccc(C)cc1  composite z-score         -1.44
12  CCOC(=O)[C@H](Cc1ccccc1)NC(=O)CCC1CC(OC(=O)NCc2cccc3ccccc23)CC2(CCCC(COC(=O)NCCC(C)C)O2)O1 (stereo partly drawn)  composite z-score        -0.278
13  CC(C)(C)N1C(=O)[C@H]2[C@H]3[C@H](O)[C@H](O)CC(=O)[C@H]3CC[C@H]2C1=O  composite z-score         0.399
14  CCOC(=O)CCN1C(=O)[C@H]2[C@H]3[C@H](O)[C@H](O)CC(=NNC(=O)OCc4ccccc4)[C@@H]3CC[C@H]2C1=O  composite z-score          0.55
15  CO[C@H]1COC(=O)[C@@H](Cc2ccccc2)NC(=O)[C@@H](C)COC(=O)CCC[C@@H]1C  composite z-score         0.241
16  CCOC(=O)[C@H](CC(C)C)NC(=O)CCC1CC(OC(=O)NCc2ccc3c(c2)OCO3)CC2(CCCC(COC(=O)NCCCN3CCCC3=O)O2)O1 (stereo partly drawn)  composite z-score          1.12
17  O=C1CCCC=C1C(O)CCOC(c1ccccc1)(c1ccccc1)c1ccccc1 (stereo not drawn)  composite z-score         0.058
18  C=CC[C@@H]1C=C[C@H](ON=C(C)CCC(=O)OC[C@H]2O[C@H](c3ccccc3)C=C[C@@H]2Oc2ccc(OC)cc2)[C@@H](CO)O1  composite z-score         0.121
